B1: WW domain-containing transcription regulator protein 1, residues 116 to 162; numbered along this chain, Q9GZV5 (parent)
chain: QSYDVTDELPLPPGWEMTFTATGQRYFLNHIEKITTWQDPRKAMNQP

# Variants of: B1
# Method Description: abundance fitness (aPCA) (normalised: wild type 0, dead -1); higher = more abundant; growth selection in yeast, the domain comes from the species named
# Test Context: Homo sapiens
Classes are defined on abundance fitness with ranges L = under -0.5, M = from -0.5 up to -0.1, H = -0.1 and over

T36E L
Q38N M
E16L M
D7V M
H30I M
N29V L
L28R M
Q46R M

Input K42Q ; output its category M
